Reported pIC50 values for a set of compounds
Assayed Target: GCN2 kinase (Homo sapiens (Human), UniProt Q9P2K8)
Sequence (Q9P2K8 whole entry): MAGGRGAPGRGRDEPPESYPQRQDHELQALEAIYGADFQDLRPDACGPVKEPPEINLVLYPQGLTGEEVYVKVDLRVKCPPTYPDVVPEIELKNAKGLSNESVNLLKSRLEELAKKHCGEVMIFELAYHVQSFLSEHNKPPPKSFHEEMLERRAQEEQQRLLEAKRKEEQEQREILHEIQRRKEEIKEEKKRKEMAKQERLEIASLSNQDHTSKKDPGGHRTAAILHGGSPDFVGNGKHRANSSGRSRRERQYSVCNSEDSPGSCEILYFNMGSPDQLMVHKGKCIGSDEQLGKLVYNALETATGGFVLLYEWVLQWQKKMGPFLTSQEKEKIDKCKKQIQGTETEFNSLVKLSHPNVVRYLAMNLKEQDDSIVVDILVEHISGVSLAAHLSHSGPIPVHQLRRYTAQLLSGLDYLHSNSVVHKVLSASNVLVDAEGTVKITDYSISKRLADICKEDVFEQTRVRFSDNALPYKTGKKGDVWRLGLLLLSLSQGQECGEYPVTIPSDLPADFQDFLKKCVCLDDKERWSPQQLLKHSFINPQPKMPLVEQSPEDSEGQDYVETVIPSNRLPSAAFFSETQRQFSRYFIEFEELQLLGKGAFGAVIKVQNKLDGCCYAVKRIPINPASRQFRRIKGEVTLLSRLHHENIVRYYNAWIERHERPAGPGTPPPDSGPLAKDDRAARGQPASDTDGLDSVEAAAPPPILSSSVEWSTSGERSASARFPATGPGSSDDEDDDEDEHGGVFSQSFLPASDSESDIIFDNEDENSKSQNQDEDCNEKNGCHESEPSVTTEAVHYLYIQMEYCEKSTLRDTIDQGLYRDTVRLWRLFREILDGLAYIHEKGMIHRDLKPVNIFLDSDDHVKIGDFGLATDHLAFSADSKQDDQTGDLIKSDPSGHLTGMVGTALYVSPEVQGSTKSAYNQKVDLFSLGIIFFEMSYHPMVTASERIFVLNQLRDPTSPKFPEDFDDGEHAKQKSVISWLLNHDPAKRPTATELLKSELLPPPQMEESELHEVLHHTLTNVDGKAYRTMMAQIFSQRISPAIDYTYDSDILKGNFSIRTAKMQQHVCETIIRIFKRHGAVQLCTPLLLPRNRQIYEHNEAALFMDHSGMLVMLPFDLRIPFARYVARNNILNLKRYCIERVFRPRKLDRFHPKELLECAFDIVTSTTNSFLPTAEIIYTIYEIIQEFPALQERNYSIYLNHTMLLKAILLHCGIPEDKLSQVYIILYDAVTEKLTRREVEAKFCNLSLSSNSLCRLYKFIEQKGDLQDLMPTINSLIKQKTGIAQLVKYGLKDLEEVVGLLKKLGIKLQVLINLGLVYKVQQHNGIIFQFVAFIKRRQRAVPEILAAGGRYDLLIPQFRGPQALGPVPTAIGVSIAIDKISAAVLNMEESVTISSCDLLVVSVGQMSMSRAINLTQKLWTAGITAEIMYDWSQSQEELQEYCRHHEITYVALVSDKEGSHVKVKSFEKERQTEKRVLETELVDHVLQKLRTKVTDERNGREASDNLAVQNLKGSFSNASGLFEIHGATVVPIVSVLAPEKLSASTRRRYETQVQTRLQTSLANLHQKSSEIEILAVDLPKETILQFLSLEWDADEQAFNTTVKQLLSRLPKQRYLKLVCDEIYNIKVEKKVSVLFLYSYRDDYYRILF
pIC50: −log10 of the molar value.

| Smiles Structure | pIC50 |
| --- | --- |
| CC(C)(C)n1cc(-c2cccc(NS(=O)(=O)c3cc(Cl)cc(CO)c3Cl)c2F)c2c(N)ncnc21 | 6.30 to 7.00 |
| Cn1cc(-c2cccc(NS(=O)(=O)c3cc(Cl)cc(CO)c3Cl)c2F)c2c(N)ncnc21 | ≥ 7.00 |
| Cn1cc(-c2cccc(NS(=O)(=O)c3cc(Cl)cc(CO)c3Br)c2F)c2c(N)ncnc21 | ≥ 7.00 |
| Cn1cc(-c2cc(F)cc(NS(=O)(=O)c3cc(Cl)cc(CO)c3Cl)c2F)c2c(N)ncnc21 | ≥ 7.00 |
| COc1c(CO)cc(Cl)cc1S(=O)(=O)Nc1cccc(-c2cn(C)c3ncnc(N)c23)c1F | 5.00 to 6.00 |
| COCCn1cc(-c2cccc(NS(=O)(=O)c3cc(Cl)cc(CO)c3Cl)c2F)c2c(N)ncnc21 | ≥ 7.00 |
